system: c-Abl (mouse); experiment: phosphorylation enrichment, bacterial display (enrichment ratio); higher = better substrate or ligand; peptides without Tyr show the background;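 also: 11-residue human phosphosite peptides and single-mutation variants displayed on the E. coli surface, counted by deep sequencing, each peptide's frequency after selection divided by its frequency in the unselected input library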;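 also: frequency after pTyr selection over input frequency; kinase dosed for 20-30% of maximal phosphorylation in three min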
Known phosphorylation enrichment of a selection of sequences

QUERY: Fill in the blank: the reported phosphorylation enrichment of CTSIHYNFMCN [TP53_Y234_T231S_YF] is ____.
RESULT: 0.694

QUERY: Quick one: HDRGNYVQLNM [RECQL4_Y353_R355Q]
RESULT: 0.552

QUERY: Then what about the sequence LEAVSYSSPFA [RNLS_Y190_R193P_YF] ?
RESULT: 2.62

QUERY: Another sequence to check: TGYRPYVCPFD [YY1_Y383_D380Y]
RESULT: 0.808

QUERY: Record: AHAGEYGVEAL [HBA1_Y25_A27V]
RESULT: 0.595

QUERY: Again, but for SVTCTGSPALN [TP53_Y126_Y126G]
RESULT: 0.612

QUERY: Same read-out for ACRSLYGGFVE [MVD_Y164] ?
RESULT: 0.511

QUERY: And then MGGSLYFSFPD [HIKESHI_Y55_V54L_YF] , what is it?
RESULT: 1.61

QUERY: Param item: SRLDSYVRSLP [TRAPPC1_Y133]
RESULT: 0.473

QUERY: Try GAEIVYKSPVV [MAPT_Y711] next.
RESULT: 18.3
